biological target: Ribosomal protein S6 kinase alpha-1 (Homo sapiens) (UniProt Q15418); conditions: at 10 µM
Sequence (Q15418 whole entry): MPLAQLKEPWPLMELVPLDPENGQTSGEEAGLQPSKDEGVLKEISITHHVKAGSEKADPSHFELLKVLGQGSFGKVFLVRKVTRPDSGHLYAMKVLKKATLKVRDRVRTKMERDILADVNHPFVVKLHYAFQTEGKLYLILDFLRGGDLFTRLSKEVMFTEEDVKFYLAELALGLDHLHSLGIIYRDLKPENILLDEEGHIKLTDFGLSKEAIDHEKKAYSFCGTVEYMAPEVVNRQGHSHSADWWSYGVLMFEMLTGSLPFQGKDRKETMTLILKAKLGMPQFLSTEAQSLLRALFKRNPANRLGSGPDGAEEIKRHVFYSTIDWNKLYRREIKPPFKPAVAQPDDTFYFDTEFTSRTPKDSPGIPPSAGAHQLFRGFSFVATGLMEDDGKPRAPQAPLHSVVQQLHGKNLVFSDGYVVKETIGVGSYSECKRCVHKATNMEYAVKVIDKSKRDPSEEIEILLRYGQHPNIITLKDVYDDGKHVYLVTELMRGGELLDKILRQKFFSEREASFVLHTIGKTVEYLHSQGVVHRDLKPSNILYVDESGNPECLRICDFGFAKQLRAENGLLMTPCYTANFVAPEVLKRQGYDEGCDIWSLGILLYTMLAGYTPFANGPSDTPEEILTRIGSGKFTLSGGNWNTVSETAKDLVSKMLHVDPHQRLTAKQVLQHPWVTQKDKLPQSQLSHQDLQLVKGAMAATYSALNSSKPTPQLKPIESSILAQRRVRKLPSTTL
assay-readout: residual activity

{"test-smiles": "COc1cc2ncnc(Nc3ccc(O)c(Br)c3)c2cc1OC", "value-observed": "45%"}
{"test-smiles": "O=c1c2ccccc2[nH]c(=S)n1CCN1CCC(=C(c2ccc(F)cc2)c2ccc(F)cc2)CC1", "value-observed": "61%"}
{"test-smiles": "NC(=O)c1ccc2[nH]c(-c3ccc(Oc4ccc(Cl)cc4)cc3)nc2c1", "value-observed": "67%"}
{"test-smiles": "O=Nc1c(-c2c(O)[nH]c3ccccc23)[nH]c2ccccc12", "value-observed": "6%"}
